test system: 786-0 renal; test: NCI-60 one-dose screen, 48 h; conditions: 10 µM unless noted
This is part of a sample that, as a whole, favours compounds with a hit. Of some 83,000 tested, about 20% had one in any assay. Activity calls are given as the source filed them. How the source made its calls: active means growth percent below 10; inactive means the rest.
Answer with one of the outcomes Y = active, N = inactive

A selection of reference data follows.
C#C[C@]1(O)CC[C@H]2[C@@H]3CC=C4c5sc(Nc6cc(C)cc(C)c6)nc5CC[C@]4(C)[C@H]3CC[C@@]21C
Y
COC(=O)CCSC1=C(C)C(=O)c2ccccc2C1=O
N
C#Cc1nc(C(=O)NCCCCCCC(=O)NO)cs1
Y
COc1ccc(/C=N/N=C(/c2ccccc2)c2ccc3nc(-c4ccc(Cl)cc4)[nH]c3c2)cc1
N

Now look at this entry.
How was O=C1C(N2CCN(c3ccccc3)CC2)=C(Cl)C(=O)c2ncccc21 classified in this test?
N
